- Test system: MCF7
- ASSAY_EXPLANATION: NCI tumour cell line growth inhibition, 48 h
Active and inactive are the calls of the source. Cut-off read from the data, not from the text of the source: active = GI50 up to about 1.1 µM and inactive = higher.
Assignment: determine reported GI50 for the given molecules.

Exercise: For CO/N=C\c1ccc2c(c1)Sc1ccccc1O2 , what is its reported GI50?
Key: 34.7 µM (inactive)

Exercise: For Cc1cc2nnn(C3CCCCO3)c2cc1C (stereo unspecified) , what is its reported GI50?
Key: > 100 µM (inactive)

Exercise: For OC[C@H]1O[C@@H]2O[C@@](COCc3ccccc3)([C@H](OCc3ccccc3)[C@H]2O)[C@@H]1OCc1ccccc1 , what is its reported GI50?
Key: 20.6 µM (inactive)

Exercise: For O=C1SC(c2ccc(Cl)cc2)(c2ccc(Cl)cc2)c2ccccc21 , what is its reported GI50?
Key: 48.8 µM (inactive)

Exercise: For O=c1cc(N2CCCC2)[nH]c(=O)n1Cc1ccccc1 , what is its reported GI50?
Key: > 100 µM (inactive)

Exercise: For N=C(N)N/N=C\c1ccc(C2CCNCC2)cc1 , what is its reported GI50?
Key: > 100 µM (inactive)

Exercise: For Cc1cn(C2OC(CO[Si](C)(C)C(C)(C)C)C(N(C)O[Si](C)(C)C(C)(C)C)C2[Se]c2ccccc2)c(=O)[nH]c1=O (stereo unspecified) , what is its reported GI50?
Key: 4.71 µM (inactive)

Exercise: For CC1CC(NC2CCCCC2)=Nc2ccccc2N1Cc1ccccc1 (stereo unspecified) , what is its reported GI50?
Key: 3.66 µM (inactive)

Exercise: For Cc1cc(O)c(C(c2cccnc2)c2c(O)cc(C)[nH]c2=O)c(=O)[nH]1 , what is its reported GI50?
Key: > 100 µM (inactive)

Exercise: For COc1ccc2c(c1)OC1c3ccccc3OCC21 (stereo unspecified) , what is its reported GI50?
Key: 88.1 µM (inactive)

Exercise: For O=C(/C=C/c1ccc(Cl)cc1)c1ccccc(=O)c1O , what is its reported GI50?
Key: 2.43 µM (inactive)
